Assay: p53 small molecule agonists, cell-based qHTS assay with human liver microsomes (AID 1963577);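 note: p53 response element beta-lactamase reporter cells with liver microsomes plus NADPH; % is set by controls: 0 for no effect and ±100 for the full control effect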
Settings: HCT-116 p53RE-bla with human liver microsomes, ratio, 16 h; series mostly up to 66 µM
Records with an inconclusive call do not appear. The source made the active and inactive calls. Calls come from the whole dose curve.
readout-kind: activation

Reference set (4 entries):
CCn1cc(C(=O)O)c(=O)c2cc(F)c(N3CCN(C)CC3)cc21 : 0.192% [at 13.5 µM] (inactive)
C[C@H]1C[C@H]2[C@@H]3CCC4=CC(=O)C=C[C@]4(C)[C@H]3C(=O)C[C@]2(C)[C@@]1(O)C(=O)CO : inactive
CC(C)Cn1cnc2c(N)nc3ccccc3c21 : 13.5% [at 13.5 µM] (inactive)
Cc1ccc(C(=O)c2ccc(CC(=O)O)n2C)cc1 : inactive

Now turn to the next compound.
# query: activation of entry NS(=O)(=O)c1cc2c(cc1Cl)NC(C(Cl)Cl)NS2(=O)=O (stereo not given)
inactive

* * *

Assay: Nuclear factor erythroid 2-related factor 2/antioxidant responsive element (Nrf2/ARE) small molecule agonists: qHTS cell viability counter screen in human keratinocytes (AID 1919968); note: nearly all actives have a fitted effect of over 55% in size
Details: KeratinoSens HaCaT ARE cells viability, CellTiter-Fluor, 24 h; series mostly up to 92.4 µM
Inconclusive results are not listed. Activity calls are given as the source filed them. Calls follow the shape of the dose curve; as a rule, active = well fitted cell-killing curve with a large enough effect in the repeat runs; inconclusive = weak or mixed curves, or effect the other way; inactive = flat fitted curve, though single readings scatter.
One label from this list, please: 1 for active, 0 for inactive

# count of solved cases: 3
CC[C@@H](CO)NCCN[C@@H](CC)CO : 0
CCCCCCCC[N+](CCCCCCCC)(CCCCCCCC)CCCCCCCC : 1
OCCN(CCO)c1ccccc1 : 0

Please indicate how the test categorized CSSc1ccoc1C .
0

Please indicate how the test categorized CC(C)OCC1CO1 (stereo not given) .
0

Please indicate how the test categorized Nc1c2c(nc3c1CCC3)CCCC2 .
0

* * *

Biological target: KiSS-1 receptor (Homo sapiens) (UniProt Q969F8)
Sequence (Q969F8 whole entry, looked up): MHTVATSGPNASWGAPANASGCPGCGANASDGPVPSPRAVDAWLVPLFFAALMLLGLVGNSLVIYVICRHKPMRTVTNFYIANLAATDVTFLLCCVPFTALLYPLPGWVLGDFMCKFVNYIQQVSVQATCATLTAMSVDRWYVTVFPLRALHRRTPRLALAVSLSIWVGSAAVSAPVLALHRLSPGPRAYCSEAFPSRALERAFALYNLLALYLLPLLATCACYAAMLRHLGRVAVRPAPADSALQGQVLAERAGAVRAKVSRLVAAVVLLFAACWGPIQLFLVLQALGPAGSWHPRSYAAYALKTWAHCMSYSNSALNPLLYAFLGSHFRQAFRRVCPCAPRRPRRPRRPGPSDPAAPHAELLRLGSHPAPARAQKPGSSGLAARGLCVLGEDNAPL
Assay: Human kisspeptin (KISS1R) small molecule agonists, calcium flux assay in KISS1R-HEK293 cells (AID 1920064); note: % is set by controls: 0 for no effect and ±100 for the full control effect
Details: KISS1R-HEK293, calcium flux fluorescence, agonist; series mostly up to 76.8 µM
Activity calls are given as the source filed them. Calls follow the shape of the dose curve; as a rule, active = well fitted activation curve with a large enough effect in the repeat runs; inconclusive = weak or mixed curves; inactive = flat fitted curve, though single readings scatter.
readout-kind: activation

Cc1cccc(C)c1OCC(C)N (configuration not stated) : inactive
CCC=O : inactive
COc1cc(S(=O)(=O)O)c(C)cc1N=Nc1c(O)ccc2cc(S(=O)(=O)O)ccc12 : inactive
CCCCCCCCOc1ccc(C(=O)O)cc1 : inactive

# query: activation of entry CCCCCCCC/C=C\CCCCCCCC(=O)OC[C@@H](O)[C@H]1OC[C@H](O)[C@H]1O
inactive

# query: activation of entry CN(C)C/C=C(/c1ccc(Br)cc1)c1cccnc1
inactive

# query: activation of entry CCCCCCCCCCCCN1CCOCC1
inactive

* * *

Experiment: p53 small molecule agonists, cell-based qHTS assay with human liver microsomes (AID 1963577);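 note: p53 response element beta-lactamase reporter cells with liver microsomes plus NADPH; % is set by controls: 0 for no effect and ±100 for the full control effect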
Settings: HCT-116 p53RE-bla with human liver microsomes, ratio, 16 h; series mostly up to 66 µM
Excerpt: National Center for Advancing Translational Sciences [NCATS] Division of Preclinical Innovation [DPI] U.S. Environmental Protection Agency [EPA] National Institutes of Environmental Health Sciences [NIEHS] National Toxicology Program [NTP] U.S. Food and Drug Administration [FDA] p53, a tumor suppressor protein, is activated following cellular insult, including DNA damage and other cellular stresses. […] The activation of the reporter gene under culture conditions can be detected by fluorescence intensity. […]
Inconclusive results are not listed. Active and inactive are the calls of the source. Calls come from the whole dose curve.
readout-kind: activation

Reference set (10 entries):
Oc1cccc2cc3cccc(O)c3c(O)c12 : inactive
CC(=O)CC(=O)Nc1ccc(C)cc1C : inactive
O=C(CCN1CCN2CCCC2C1)N1c2ccccc2Sc2ccc(Cl)cc21 (centres undefined) : -1.04% [at 13.5 µM] (inactive)
Cc1cc(OI)c(C(C)C)cc1-c1cc(C(C)C)c(OI)cc1C : inactive
COc1ccccc1OC(=O)Oc1ccccc1OC : inactive
C[C@@H]1C[C@H]2[C@@H]3CCC4=CC(=O)C=C[C@]4(C)[C@@]3(F)[C@@H](O)C[C@]2(C)[C@@]1(O)C(=O)COP(=O)(O)O : inactive
COC(=O)N/N=C/c1c[n+]([O-])c2ccccc2[n+]1[O-] : inactive
Cc1nc(-c2ccc(Cl)cc2)oc1COC(C)(C)C(=O)O : inactive
CCN1CCN(c2cc3c(cc2F)c(=O)c(C(=O)O)cn3C2CC2)CC1 : inactive
C[C@@H](CN1CC(=O)NC(=O)C1)N1CC(=O)NC(=O)C1 : inactive

# query: activation of entry N#CC1(N)CCCCC1
inactive

# query: activation of entry CSSc1ccoc1C
inactive

# query: activation of entry CC(C)(c1cc(Br)c(OCCO)c(Br)c1)c1cc(Br)c(OCCO)c(Br)c1
inactive

* * *

Molecular target: Gonadotropin-releasing hormone receptor (Homo sapiens) (UniProt P30968)
Sequence (P30968 whole entry, looked up): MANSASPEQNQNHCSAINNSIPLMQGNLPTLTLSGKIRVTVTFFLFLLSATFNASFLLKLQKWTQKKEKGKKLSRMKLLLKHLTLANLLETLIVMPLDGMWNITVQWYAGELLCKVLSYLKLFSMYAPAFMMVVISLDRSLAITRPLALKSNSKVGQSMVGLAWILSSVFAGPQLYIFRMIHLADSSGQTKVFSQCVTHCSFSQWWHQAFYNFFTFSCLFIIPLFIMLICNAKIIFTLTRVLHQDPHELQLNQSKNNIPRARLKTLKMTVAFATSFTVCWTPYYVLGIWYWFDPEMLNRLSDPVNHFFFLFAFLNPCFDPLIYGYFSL
Assay: Human gonadotropin-releasing hormone receptor (GnRHR) small molecule agonists, calcium flux assay in GnRHR-HEK293 cells (AID 1920063); note: % is set by controls: 0 for no effect and ±100 for the full control effect; nearly all actives have a fitted effect of over 35% in size
Conditions: calcium flux fluorescence, agonist mode; series mostly up to 57.6 µM
Calls of active or inactive are those of the source. The call rests on the fitted dose curve.
readout-kind: activity change

Reference set (4 entries):
CC(CO)(CO)C(=O)O : inactive
C1COC(NC(C2CC2)C2CC2)=N1 : inactive
CCc1ccc(O)c(OC)c1 : inactive
CC(C)(C)NCC(O)COc1cccc2c1CCC(=O)N2 (centres undefined) : inactive

Now turn to the next compound.
# query: activity change | item OCCNCc1ccccc1 | system: Gonadotropin-releasing hormone receptor (Homo sapiens) (UniProt P30968)
inactive

* * *

Assay: cAMP Responsive Elements (CRE) small molecule antagonists, cell-based qHTS assay (AID 1963591); note: % is set by controls: 0 for no effect and ±100 for the full control effect
Details: CRE-bla HEK293T, beta-lactamase FRET ratio; series mostly up to 92.4 µM
Results filed as inconclusive are left out. The source made the active and inactive calls. Calls come from the whole dose curve; as a rule, active = well fitted inhibition curve with a large enough effect in the signal ratio in the repeat runs (not every such curve was filed as active); inconclusive = weak or mixed curves, or effect the other way; inactive = flat fitted curve, though single readings scatter; the % refers to the signal ratio. Peptide text beside a SMILES is read from it.
readout-kind: activity change, negative = inhibition

NC(Cc1ccc(Cl)cc1)C(=O)O (stereo unspecified) : 2.88% [at 0.349 µM] (inactive)
C=CC(=C)CC/C=C(\C)CCC=C(C)C : 1.53% [at 18.9 µM] (inactive)
CCCCCCOC(=O)CCCCC(=O)OCCCCCC : inactive
CCCCC/C=C\CCC=O : inactive
C=CC(C)(O)CCCC(C)CCCC(C)CCCC(C)C (stereo unspecified) : inactive

# query: activity change, negative = inhibition of entry CC(=O)c1ccc(Cl)c(Cl)c1Cl
inactive

# query: activity change, negative = inhibition of entry CC(=O)N[C@@H](CO)C(=O)N[C@@H](CC(=O)O)C(=O)N[C@@H](CCCCN)C(=O)N1CCC[C@H]1C(=O)O (Ac-SDKP-OH)
inactive

* * *

Test: Nuclear factor erythroid 2-related factor 2/antioxidant responsive element (Nrf2/ARE) small molecule agonists: qHTS cell viability counter screen in human keratinocytes (AID 1919968); note: nearly all actives have a fitted effect of over 55% in size
Details: KeratinoSens HaCaT ARE cells viability, CellTiter-Fluor, 24 h; series mostly up to 92.4 µM
Description: U.S. Tox21 Program National Center for Advancing Translational Sciences [NCATS] Division of Preclinical Innovation [DPI] U.S. Environmental Protection Agency [EPA] National Institutes of Environmental Health Sciences [NIEHS] National Toxicology Program [NTP] U.S. Food and Drug Administration [FDA] […] The activation of the report gene under culture conditions can be detected by ONE-Glo Luciferase Assay System (Promega, Madison, WI). […]
Records with an inconclusive call do not appear. Calls of active or inactive are those of the source. The call rests on the fitted dose curve; in most records, active means well fitted cell-killing curve with a large enough effect in the repeat runs; inconclusive means weak or mixed curves, or effect the other way; inactive means flat fitted curve, though single readings scatter.
One label from this list, please: 1 for active, 0 for inactive

# count of solved cases: 2
CCCCCCCCCCCC[N+](C)(C)CC(=O)[O-] : 0
C=CC(C)(CCC=C(C)C)OC(=O)C(C)C (stereo not given) : 0

Please indicate how the test categorized CCN(CCCCOC(=O)c1ccc(OC)c(OC)c1)C(C)Cc1ccc(OC)cc1 (stereo not given) .
0

Please indicate how the test categorized CC1(C)C(=O)N(CO)C(=O)N1CO .
0

Please indicate how the test categorized CN(C)C(=O)Nc1ccc(Oc2ccc(Cl)cc2)cc1 .
0

Please indicate how the test categorized CC(=O)OC(C)(C)Cc1ccccc1 .
0

* * *

Biological target: D(2) dopamine receptor (Homo sapiens) (UniProt P14416)
Sequence (P14416 whole entry, looked up): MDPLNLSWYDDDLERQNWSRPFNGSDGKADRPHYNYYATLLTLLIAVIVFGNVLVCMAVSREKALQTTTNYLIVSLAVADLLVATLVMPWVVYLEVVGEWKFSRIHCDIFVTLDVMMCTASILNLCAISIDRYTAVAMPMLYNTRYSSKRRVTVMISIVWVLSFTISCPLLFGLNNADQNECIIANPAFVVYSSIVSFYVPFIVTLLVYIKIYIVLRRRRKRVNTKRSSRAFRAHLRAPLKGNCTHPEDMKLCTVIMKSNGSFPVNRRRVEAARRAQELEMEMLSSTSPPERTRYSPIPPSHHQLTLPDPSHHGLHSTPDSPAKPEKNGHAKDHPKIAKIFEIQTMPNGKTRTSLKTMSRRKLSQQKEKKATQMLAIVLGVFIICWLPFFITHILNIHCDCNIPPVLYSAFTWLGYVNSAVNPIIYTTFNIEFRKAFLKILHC
Assay: Dopamine D2 receptor (DRD2) small molecule agonists, cell-based qHTS assay (AID 1963594); note: % is set by controls: 0 for no effect and ±100 for the full control effect; nearly all actives have a fitted effect of over 35% in size
Conditions: HEK293-DRD2 cAMP HTRF, agonist mode, 30 min; series mostly up to 92.4 µM
Results filed as inconclusive are left out. Calls of active or inactive are those of the source. The call rests on the fitted dose curve.
readout-kind: activation

Reference set (8 entries):
CCCCc1ccc2c(n1)[C@@H](c1ccc(OC)cc1C[C@H](C)C(=O)O)[C@H](C(=O)O)[C@H]2c1ccc2c(c1)OCO2 : inactive
CC(C)(O)C(=O)c1ccccc1 : inactive
CCCCCCCCCCOC(C)=O : inactive
CC(C(=O)O)c1ccc(-c2ccccc2)c(F)c1 (centres undefined) : inactive
CN1CCN(CC(=O)N2c3ccccc3C(=O)Nc3cccnc32)CC1 : -0.938% [at 8.39 µM] (inactive)
CSc1cnc(C)cn1 : inactive
Oc1cc(O)c(Cl)cc1Cl : inactive
CC(C)=CCC/C(C)=C/CC/C(C)=C/CO : inactive

# query: activation of entry C=C(C)C(=O)OCCN(C)C
inactive

# query: activation of entry C=CC(C)(O)CCCC(C)CCCC(C)CCCC(C)C (centres undefined)
inactive

# query: activation of entry O=CN1CCCCC1
inactive
